Cited source for all entries: PubChem BioAssay (NCI)

Test system: SF-268 CNS
Test: NCI tumour cell line growth inhibition, 48 h
measurement.label: TGI

{"compound": "Cn1cnc([N+](=O)[O-])c1S(=O)(=O)Oc1cccc2ccccc12", "TGI": "33.4 µM"}
{"compound": "CC(=O)OC1=CC(n2cc(F)c(=O)[nH]c2=O)OC(C)C1=O (stereo not given)", "TGI": "> 100 µM"}
{"compound": "C=C1C(=O)O[C@H]2[C@H]1CC/C(COC(=O)c1c[nH]c3ccccc13)=C\\CC[C@@]1(C)O[C@@H]21", "TGI": "1.07 µM"}

Form: compound = `CCOC(=O)CC(=O)ON(C)C(C)=O` ; TGI = > 100 µM

Form: compound = `CCC1(CC)C(=O)NN(C(=O)c2ccccc2)C1=O` ; TGI = > 100 µM

====

Parameter TGI: see the listing below.
Test system: CCRF-CEM leukemia
Assay: NCI tumour cell line growth inhibition, 48 h
Your answer is read as µM, so omit the unit and give the number.

{"molecule": "Nc1ncnc2c1nnn2C1OC(CO)C(O)C1O (stereo not given)", "measurement.label": "TGI", "unit.name": "µM", "value": 27.9}

Considering `Cc1cc(I)cc(CN(C)CCCN2CCCCC2)c1O` , its TGI with CCRF-CEM leukemia was recorded as 43.4

====

System: NCI-H522 lung
Experiment: NCI tumour cell line growth inhibition, 48 h
Parameter TGI: see the listing below.

Solved entries (count: 2):
{"compound": "CCC1(CC)C(=O)NN(C(=O)c2ccccc2)C1=O", "TGI": "> 100 µM"}
{"compound": "CN(C)c1ccc(/C=C(\\NC(=O)c2ccccc2)c2nc3ncncc3[nH]2)cc1", "TGI": "> 100 µM"}

Now look at this one.
Considering CC1=NN(c2cccc(Cl)c2)C2(C1=C/C=C/c1ccccc1)C(Cl)C(=O)N2c1nc2ccccc2s1 (stereo not drawn) , its TGI with NCI-H522 lung was recorded as 47.4 µM

====

System: SK-MEL-28 melanoma
Assay: NCI tumour cell line growth inhibition, 48 h
measurement.label: TGI

{"compound": "C[Si](C)(C)C1(Sc2ccccc2)SCCCS1", "TGI": "> 100 µM"}

Form: compound = `Cc1cc(N(CCOS(C)(=O)=O)CCOS(C)(=O)=O)ccc1C=O` ; TGI = 31.3 µM

Form: compound = `CC(C)OP(=O)(OC(C)C)C(=NCCN=C(NNc1ccc([N+](=O)[O-])cc1)P(=O)(OC(C)C)OC(C)C)NNc1ccc([N+](=O)[O-])cc1` ; TGI = > 100 µM

Form: compound = `COc1cc(/C=C/c2cc(O)c(C(C)=O)c(O)c2)cc2c1O[C@]1(C)CC[C@@H](O)C(C)(C)[C@H]1C2` ; TGI = 26.2 µM

Form: compound = CC1=CC(O)(c2ccc(-c3ccccc3Cl)cc2)OC1=O (configuration not stated) ; TGI = > 100 µM

Form: compound = `O=C(Nc1ccc(Cl)cc1)c1cccc(NC2=C(Cl)C(=O)N(Cc3ccccc3)C2=O)c1` ; TGI = > 100 µM

====

Test system: SK-MEL-2 melanoma
Assay: NCI tumour cell line growth inhibition, 48 h
Parameter TGI: see the listing below.

{"molecule": "Cc1ccc(-c2[nH]c(=O)n(C3OC(CO)C(O)C(O)C3O)c(=O)c2C#N)cc1 (configuration not stated)", "TGI": "> 100 µM"}
{"molecule": "Clc1ccc(C(c2ccc(Cl)cc2)c2ccccn2)cc1", "TGI": "35 µM"}
{"molecule": "CCCC(=O)OC1CC(n2cc(F)c(=O)[nH]c2=O)OC1COP(=O)(OCC(Cl)(Cl)Cl)OCC(Cl)(Cl)Cl (configuration not stated)", "TGI": "> 100 µM"}

Form: molecule = CC(=O)[C@@]12O[C@@H]1CC1C3CCC4=CC(O)CCC4(C)C3CCC12C (some centres not stated) ; TGI = > 100 µM

Form: molecule = `Cc1cc(-c2ccc3nc(C4CCOCC4)n(CCOC(F)(F)F)c3c2)cn(C)c1=O` ; TGI = 15.5 µM
